Where these numbers come from: paper PMC11096365

ASSAYED_TARGET: ELP1;ELP2;ELP3 wild type (Homo sapiens;Homo sapiens;Homo sapiens, UniProt O95163;Q6IA86;Q9H9T3 1-1332;1-826;1-547, ||)
Sequence (O95163 whole entry, chain 1 of 3): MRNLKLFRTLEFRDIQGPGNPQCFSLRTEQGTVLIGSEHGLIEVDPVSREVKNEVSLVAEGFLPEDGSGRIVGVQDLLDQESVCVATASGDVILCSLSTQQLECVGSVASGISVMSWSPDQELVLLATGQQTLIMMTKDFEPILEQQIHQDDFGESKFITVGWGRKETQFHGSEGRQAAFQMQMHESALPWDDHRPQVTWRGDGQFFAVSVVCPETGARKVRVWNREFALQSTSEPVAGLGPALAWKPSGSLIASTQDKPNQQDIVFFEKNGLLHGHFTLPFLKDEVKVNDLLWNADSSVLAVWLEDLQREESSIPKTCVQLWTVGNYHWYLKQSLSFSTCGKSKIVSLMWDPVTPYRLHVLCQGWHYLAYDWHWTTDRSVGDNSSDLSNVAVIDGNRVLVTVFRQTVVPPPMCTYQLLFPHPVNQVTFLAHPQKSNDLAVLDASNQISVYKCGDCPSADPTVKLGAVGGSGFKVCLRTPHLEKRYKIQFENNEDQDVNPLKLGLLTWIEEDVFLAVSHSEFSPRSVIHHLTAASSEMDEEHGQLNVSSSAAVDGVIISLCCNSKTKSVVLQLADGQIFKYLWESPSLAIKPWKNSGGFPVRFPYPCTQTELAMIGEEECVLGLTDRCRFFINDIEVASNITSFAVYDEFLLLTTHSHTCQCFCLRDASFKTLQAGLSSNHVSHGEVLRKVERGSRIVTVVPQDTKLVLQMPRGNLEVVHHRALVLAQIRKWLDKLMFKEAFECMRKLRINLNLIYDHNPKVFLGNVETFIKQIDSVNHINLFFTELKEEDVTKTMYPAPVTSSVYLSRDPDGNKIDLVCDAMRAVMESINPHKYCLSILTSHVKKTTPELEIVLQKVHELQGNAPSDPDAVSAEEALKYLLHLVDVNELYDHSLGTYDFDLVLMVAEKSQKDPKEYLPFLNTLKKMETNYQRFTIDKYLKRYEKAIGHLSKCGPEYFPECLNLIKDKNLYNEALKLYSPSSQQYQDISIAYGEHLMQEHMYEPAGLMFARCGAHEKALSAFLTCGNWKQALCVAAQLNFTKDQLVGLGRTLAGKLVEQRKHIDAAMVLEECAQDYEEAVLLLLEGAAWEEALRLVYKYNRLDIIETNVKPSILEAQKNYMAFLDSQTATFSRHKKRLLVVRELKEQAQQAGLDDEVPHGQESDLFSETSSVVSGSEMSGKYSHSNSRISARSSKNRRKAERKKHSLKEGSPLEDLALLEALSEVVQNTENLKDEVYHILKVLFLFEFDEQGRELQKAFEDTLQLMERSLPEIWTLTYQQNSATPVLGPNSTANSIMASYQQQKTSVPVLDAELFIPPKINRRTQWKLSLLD
Sequence (Q6IA86 whole entry, chain 2 of 3): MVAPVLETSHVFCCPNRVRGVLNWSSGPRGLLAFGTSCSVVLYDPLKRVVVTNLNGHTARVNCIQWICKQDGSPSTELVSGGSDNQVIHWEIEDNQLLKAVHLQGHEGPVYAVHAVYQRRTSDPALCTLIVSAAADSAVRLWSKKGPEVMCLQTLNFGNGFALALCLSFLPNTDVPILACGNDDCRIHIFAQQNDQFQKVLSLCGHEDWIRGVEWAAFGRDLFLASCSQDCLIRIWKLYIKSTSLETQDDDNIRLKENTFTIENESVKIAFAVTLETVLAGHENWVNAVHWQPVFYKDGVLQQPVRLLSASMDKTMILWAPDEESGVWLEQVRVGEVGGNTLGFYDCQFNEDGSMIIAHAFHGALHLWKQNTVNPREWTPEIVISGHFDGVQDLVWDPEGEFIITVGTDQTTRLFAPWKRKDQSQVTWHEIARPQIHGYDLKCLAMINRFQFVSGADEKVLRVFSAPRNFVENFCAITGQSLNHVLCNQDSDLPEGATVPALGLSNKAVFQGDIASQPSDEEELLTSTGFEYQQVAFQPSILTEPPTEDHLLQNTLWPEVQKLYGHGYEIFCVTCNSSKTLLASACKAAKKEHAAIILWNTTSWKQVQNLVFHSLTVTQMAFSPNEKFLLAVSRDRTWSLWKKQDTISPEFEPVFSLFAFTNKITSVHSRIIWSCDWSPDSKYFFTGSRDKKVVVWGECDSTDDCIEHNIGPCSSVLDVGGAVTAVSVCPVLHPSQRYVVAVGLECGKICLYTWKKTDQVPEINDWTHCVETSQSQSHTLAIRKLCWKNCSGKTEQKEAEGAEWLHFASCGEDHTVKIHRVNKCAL
Sequence (Q9H9T3 whole entry, chain 3 of 3): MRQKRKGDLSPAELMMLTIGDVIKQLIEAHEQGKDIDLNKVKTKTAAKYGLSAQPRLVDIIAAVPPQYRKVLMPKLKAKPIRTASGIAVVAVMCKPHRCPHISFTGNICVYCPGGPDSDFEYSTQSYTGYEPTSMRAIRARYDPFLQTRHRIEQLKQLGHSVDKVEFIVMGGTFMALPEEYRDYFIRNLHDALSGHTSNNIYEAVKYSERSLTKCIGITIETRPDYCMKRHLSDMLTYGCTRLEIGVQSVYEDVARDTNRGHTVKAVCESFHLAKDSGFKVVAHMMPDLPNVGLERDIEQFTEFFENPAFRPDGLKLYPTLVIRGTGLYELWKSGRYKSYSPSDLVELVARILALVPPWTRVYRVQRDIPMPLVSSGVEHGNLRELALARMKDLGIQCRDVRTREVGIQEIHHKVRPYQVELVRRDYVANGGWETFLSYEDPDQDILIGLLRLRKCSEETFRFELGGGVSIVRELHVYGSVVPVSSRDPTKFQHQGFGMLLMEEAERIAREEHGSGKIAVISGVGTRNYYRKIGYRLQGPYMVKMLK
ASSAY_COMMENT: MST; MST: 20 mM HEPES pH 7.5, 100 mM NaCl, 5 mM DTT, 0.05% Tween 20; incubated at 4 C 30 min, measured at 25 C; Cy5-tRNA 14 or 30 nM. Cryo-EM: 20 mM HEPES pH 7.5, 100 mM NaCl, 2 mM MgCl2, 2 mM DTT
TEST_SETTINGS: protein: recombinant;recombinant;recombinant; tags: ;;C-terminal Twin-Strep-Tag; chain copies: 2;2;2; label: internal Cy5 (5% Cy5-CTP); tRNA fold, long variable loop
METRIC_NAME: pKd
# pKd = -log10(concentration in molar units)

Data request: Value lookup for pKd; key = tRNASerUGA (structured_RNA) RNA: GCAGCGAUGGCCGAGUGGUUAAGGCGUUGGACUUGAAAUCCAAUGGGGUCUCCCCGCGCAGGUUCGAACCCUGCUCGCUGCGCCA
Data returned: 6.86
